- tested_on: KRAS G12C (Homo sapiens, UniProt P01116+P62937, G12C)
- Sequence (P01116 1-169 isoform P01116-2 G12C, one chain of several): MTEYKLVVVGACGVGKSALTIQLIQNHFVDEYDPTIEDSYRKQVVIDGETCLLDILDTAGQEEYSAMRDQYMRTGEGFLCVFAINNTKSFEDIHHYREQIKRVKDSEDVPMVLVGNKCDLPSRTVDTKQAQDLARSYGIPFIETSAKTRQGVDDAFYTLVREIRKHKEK
- assay_remarks: Disruption of BRAF RBD interaction with Ras (FRET / MOA assay, with Cyclophilin A)
- Format: biochemical
- measurement_parameters: read-out: KRAS G12C FRET data, IC50
test_readout: IC50

// fetch IC50 given entry CCn1c(-c2cccnc2[C@H](C)OC)c2c3cc(ccc31)-c1csc(n1)C[C@H](NC(=O)[C@H](C(C)C)N(C)C(=O)N1CCCC13CCN(C)CC3)C(=O)N1CCC[C@H](N1)C(=O)OCC(C)(C)C2 [Example A498]
10 to 100 nM

Annotate the compound CCn1c(-c2cccnc2[C@H](C)OC)c2c3cc(ccc31)-c1csc(n1)C[C@H](NC(=O)[C@H](C(C)C)N(C)C(=O)N1CC(C#N)(N(C)C)C1)C(=O)N1CCC[C@H](N1)C(=O)OCC(C)(C)C2 [Example A452] with its measured IC50.
10 to 100 nM

Determine from records and report IC50 for CCn1c(-c2cccnc2COC)c2c3cc(ccc31)-c1cc(O)cc(c1)C[C@H](NC(=O)[C@H](C(C)C)N(C)C(=O)[C@H](N)CCCNC(=N)N)C(=O)N1CCC[C@H](N1)C(=O)OCC(C)(C)C2 [Example A48]
100 to 1000 nM

====

Exercise: for every item that follows, state its recorded IC50.
- tested_on: KRAS G12S (Homo sapiens, UniProt P01116+P62937, G12S)
- Sequence (P01116 1-169 isoform P01116-2 G12S limits assumed, one chain of several): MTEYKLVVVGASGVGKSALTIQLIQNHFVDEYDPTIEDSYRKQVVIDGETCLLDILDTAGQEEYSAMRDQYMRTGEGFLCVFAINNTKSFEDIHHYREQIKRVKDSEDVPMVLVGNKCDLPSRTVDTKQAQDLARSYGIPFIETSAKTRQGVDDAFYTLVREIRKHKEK
- assay_remarks: Disruption of BRAF RBD interaction with Ras (FRET / MOA assay, with Cyclophilin A)
- Type: biochemical
- measurement_parameters: read-out: KRAS G12S FRET data, IC50
- Description: This protocol may also be executed substituting other Ras proteins or nucleotides. The purpose of this biochemical assay was to measure the ability of test compounds to facilitate ternary complex formation between a nucleotide-loaded K-Ras isoform and Cyclophilin A; the resulting ternary complex disrupts binding to a BRAF^RBD construct, inhibiting K-Ras signaling through a RAF effector. Data is reported as IC50 values. […]

Please give measured IC50 of the following entry: `C=CC(=O)N1CC[C@H](C(=O)Nc2ccccc2C(=O)N[C@H]2Cc3cc(O)cc(c3)-c3ccc4c(c3)c(c(-c3cnccc3COC)n4CC)CC(C)(C)COC(=O)[C@@H]3CCCN(N3)C2=O)C1`
0.1 to 1 µM

Check the records and state IC50 for `CCn1c(-c2cccnc2[C@H](C)OC)c2c3cc(ccc31)-c1csc(n1)C[C@H](NC(=O)[C@@H]1CCCO1)C(=O)N1CCC[C@H](N1)C(=O)OCC(C)(C)C2`
0.1 to 1 µM

Tell me measured IC50 for `CCn1c(-c2cccnc2[C@H](C)OC)c2c3cc(ccc31)-c1csc(n1)C[C@H](NC(=O)[C@H](C(C)C)N(C)C(=O)N1CCC[C@@H](CN(C)C)C1)C(=O)N1CCC[C@H](N1)C(=O)OCC(C)(C)C2` please.
0.1 to 1 µM

Using known records, supply IC50 for C=CC(=O)N1CC(OC[C@H](C(=O)N[C@H]2Cc3cc(F)cc(c3)-c3ccc4c(c3)c(c(-c3cccnc3[C@H](C)OC)n4CC)CC(C)(C)COC(=O)[C@@H]3CCCN(N3)C2=O)C(C)C)C1 (atropisomer, axis not shown)
1 to 10 µM

Hello, please tell me recorded IC50 for this one: `C=CC(=O)N1CC2(CCN([C@H](C(=O)N[C@H]3Cc4cc(O)cc(c4)-c4ccc5c(c4)c(c(-c4ccccc4CCOC)n5CC)CC(C)(C)COC(=O)[C@@H]4CCCN(N4)C3=O)C(C)C)C2=O)C1`
1 to 10 µM

Complete the entry with IC50 for `C=CC(=O)N1CCC(C(=O)N(C)[C@H](C(=O)N[C@H]2Cc3cc(O)cc(c3)-c3ccc4c(c3)c(c(-c3ccccc3CN(C)C)n4CC)CC(C)(C)COC(=O)[C@@H]3CCCN(N3)C2=O)C(C)C)CC1`
1 to 10 µM

Report measured IC50; entry is `CCn1c(-c2cccnc2[C@H](C)OC)c2c3cc(ccc31)-c1cc(O)cc(c1)C[C@H](NC(=O)[C@H](C(C)C)N(C)C(=O)[C@H]1CCN(C(=O)[C@H]3CCCN3)C1)C(=O)N1CCC[C@H](N1)C(=O)OCC(C)(C)C2`
0.01 to 0.1 µM

Identify the reported IC50 for the following entry. CCn1c(-c2cc(N3CCN(C)CC3)cnc2[C@H](C)OC)c2c3cc(ccc31)-c1csc(n1)C[C@H](NC(=O)[C@H](C(C)C)N(C)C(=O)[C@@H]1OCC[C@@H]1c1ccccc1)C(=O)N1CCC[C@H](N1)C(=O)OCC(C)(C)C2 (atropisomer, axis not shown)
0.1 to 1 µM

State its IC50 for this molecule: `CCn1c(-c2cccnc2[C@H](C)OC)c2c3cc(ccc31)-c1csc(n1)C[C@H](NC(=O)[C@H](C(C)C)N(C)C(=O)N1CCOC[C@@H]1c1ccccc1)C(=O)N1CCC[C@H](N1)C(=O)OCC(C)(C)C2`
1 to 10 µM

====

- tested_on: KRAS G13D (Homo sapiens, UniProt P01116+P62937, G13D)
- Sequence (P01116 1-169 isoform P01116-2 G13D limits assumed, one chain of several): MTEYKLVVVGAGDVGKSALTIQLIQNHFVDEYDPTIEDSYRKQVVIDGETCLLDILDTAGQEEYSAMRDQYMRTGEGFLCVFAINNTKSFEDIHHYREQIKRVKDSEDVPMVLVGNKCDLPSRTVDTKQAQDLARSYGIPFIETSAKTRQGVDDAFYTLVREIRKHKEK
- assay_remarks: Disruption of BRAF RBD interaction with Ras (FRET / MOA assay, with Cyclophilin A)
- Format: biochemical
- measurement_parameters: KRAS G13D; read-out: KRAS G13D FRET data IC50
test_readout: IC50

In one line, give reported IC50 of the entry `CCn1c(-c2cccnc2[C@H](C)OC)c2c3cc(cnc31)-c1csc(n1)C[C@H](NC(=O)[C@H](C(C)C)N(C)C(=O)N1CC(OC)C1)C(=O)N1CCC[C@H](N1)C(=O)OCC(C)(C)C2` .
1000 to 10000 nM

# return recorded IC50 for input `CCn1c(-c2cccnc2[C@H](C)OC)c2c3cc(ccc31)-c1csc(n1)C[C@H](NC(=O)[C@H](C(C)C)N(C)C(=O)N(C)C[C@@H]1CCCN1C)C(=O)N1CCC[C@H](N1)C(=O)OCC(C)(C)C2`
100 to 1000 nM

Specify reported IC50 for the compound shown: `CCn1c(-c2cccnc2[C@H](C)OC)c2c3cc(ccc31)-c1csc(n1)C[C@H](NC(=O)[C@H](C(C)C)N(C)C(=O)N1CC3(CN(C)CCO3)C1)C(=O)N1CCC[C@H](N1)C(=O)OCC(C)(C)C2`
1000 to 10000 nM

Return the recorded IC50 value; entry: CCn1c(-c2cc(C3CCN(C)CC3)cnc2[C@H](C)OC)c2c3cc(ccc31)-c1csc(n1)C[C@H](NC(=O)[C@H](C(C)C)N(C)C(=O)N1CCOCC1)C(=O)N1CCC[C@H](N1)C(=O)OCC(C)(C)C2 (atropisomer, axis not shown)
100 to 1000 nM

====

For each entry below, report its IC50 value.
- tested_on: KRAS G12D (Homo sapiens, UniProt P01116+P62937, G12D)
- Sequence (P01116 1-169 isoform P01116-2 G12D limits assumed): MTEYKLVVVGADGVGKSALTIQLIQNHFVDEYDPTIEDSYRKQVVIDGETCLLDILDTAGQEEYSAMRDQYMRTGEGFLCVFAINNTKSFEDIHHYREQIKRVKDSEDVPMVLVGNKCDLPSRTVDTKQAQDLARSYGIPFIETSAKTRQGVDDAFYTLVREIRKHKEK
- Sequence (P62937 whole entry): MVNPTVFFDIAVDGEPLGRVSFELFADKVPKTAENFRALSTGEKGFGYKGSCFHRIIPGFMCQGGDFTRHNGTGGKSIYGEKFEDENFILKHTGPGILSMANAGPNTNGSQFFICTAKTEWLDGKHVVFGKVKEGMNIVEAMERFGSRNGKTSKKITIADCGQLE
- assay_remarks: Ras-Raf disruption / FRET / MOA assay (BRAF RBD)
- Format: biochemical
- measurement_parameters: KRAS G12D FRET data IC50, Ras-Raf disruption, with Cyclophilin A

Respond only with IC50 recorded for CCn1c(-c2cccnc2[C@H](C)OC)c2c3cc(ccc31)-c1cc(O)cc(c1)C[C@H](NC(=O)[C@H](C(C)C)N(C)C(=O)CN(C)C(=O)[C@H]1CN1CCCOC)C(=O)N1CCC[C@H](N1)C(=O)OCC(C)(C)C2 (some centres unmarked)
100 to 1000 nM

Respond only with IC50 recorded for CCn1c(-c2cccnc2[C@H](C)OC)c2c3cc(ccc31)-c1cc(O)cc(c1)C[C@H](NC(=O)[C@H](C(C)C)N(C)C(=O)CN(C)C(=O)C1CN1CCOC)C(=O)N1CCC[C@H](N1)C(=O)OCC(C)(C)C2 (some centres unmarked)
100 to 1000 nM

Quickly give me recorded IC50 for CCn1c(-c2cccnc2[C@H](C)OC)c2c3cc(ccc31)-c1cc(O)cc(c1)C[C@H](NC(=O)[C@H](C(C)C)N(C)C(=O)CN(C)C(=O)[C@H]1CN1CCCC#N)C(=O)N1CCC[C@H](N1)C(=O)OCC(C)(C)C2 (some centres unmarked)
100 to 1000 nM

Name the recorded IC50 of the item `CCn1c(-c2cccnc2[C@H](C)OC)c2c3cc(ccc31)-c1cc(O)cc(c1)C[C@H](NC(=O)[C@H](C1CCCC1)N(C)C(=O)[C@H](C)N(C)C(=O)[C@@H]1N[C@@H]1C1CC1)C(=O)N1CCC[C@H](N1)C(=O)OCC(C)(C)C2` in your answer.
100 to 1000 nM

Identify IC50 associated with the molecule CCn1c(-c2cccnc2[C@H](C)OC)c2c3cc(ccc31)-c1cc(O)cc(c1)C[C@H](NC(=O)[C@H](C1CCCC1)N(C)C(=O)CN(C)C(=O)[C@H]1[C@@H](C3CC3)N1CCCOC)C(=O)N1CCC[C@H](N1)C(=O)OCC(C)(C)C2 (some centres unmarked)
100 to 1000 nM

Note down IC50 recorded for CCN1C[C@@H]1C(=O)N(C)CC(=O)N(C)[C@H](C(=O)N[C@H]1Cc2cc(O)cc(c2)-c2ccc3c(c2)c(c(-c2cccnc2[C@H](C)OC)n3CC)CC(C)(C)COC(=O)[C@@H]2CCCN(N2)C1=O)C1CCCC1 (some centres unmarked)
10 to 100 nM

Answer with reported IC50 of CCn1c(-c2cccnc2[C@H](C)OC)c2c3cc(ccc31)-c1cc(O)cc(c1)C[C@H](NC(=O)[C@H](C(C)C)N(C)C(=O)CN(C)C(=O)[C@H]1CN1C(C)C)C(=O)N1CCC[C@H](N1)C(=O)OCC(C)(C)C2 (some centres unmarked)
100 to 1000 nM

Assign IC50 to the following record: `CCn1c(-c2cc(N3CCN(C)CC3)cnc2[C@H](C)OC)c2c3cc(ccc31)-c1cc(O)cc(c1)C[C@H](NC(=O)[C@H](C1CCCC1)N(C)C(=O)CN(C)C(=O)[C@@H]1N[C@@H]1C1CC1)C(=O)N1CCC[C@H](N1)C(=O)OCC(C)(C)C2`
< 10 nM
